Entries annotated with measured GI50
system: M14; assay: NCI tumour cell line growth inhibition, 48 h
Calls of active or inactive are those of the source. Cut-off read from the data, not from the text of the source: active = GI50 up to about 1.1 µM and inactive = higher.

Below, 3 compounds whose answers are already recorded.
In [3]: df
Out[3]:
                                   compound  target_or_system               result
0   CO/C(=N\N=C(/c1ccccc1)C(F)(F)F)c1ccncc1               M14   52.6 µM (inactive)
1  CCCCCCCCCCCCCCCCCCOP(=O)([O-])OC1CC[N+](C)(C)CC1               M14   2.97 µM (inactive)
2  COc1ccc([C@]23CCN(S(=O)(=O)c4ccc(C)cc4)[C@H]2[C@H](CO)C2(CC3)OCC(C)(C)CO2)cc1OC               M14  > 100 µM (inactive)

Give GI50; test system M14; compound CCCCCCCCCCCC(=O)OCC1OC(n2cc(F)c(=O)[nH]c2=O)C(N)C(O)C1O (stereo not given) > 100 µM (inactive)

Give GI50; test system M14; compound CC1(C)[C@@H]2CC[C@]1(C)[C@H](OC(=O)CSC#N)C2 47.1 µM (inactive)

Give GI50; test system M14; compound CC1NOC(=O)C1/N=N/c1ccccc1Cl (stereo not given) 40.6 µM (inactive)

Give GI50; test system M14; compound COc1cc2c(c3c1c(=O)c1ccccc1n3C)C=CC1(CCCC1)O2 13.3 µM (inactive)

Give GI50; test system M14; compound COc1ccc2c(C3(O)CCNCC3)c[nH]c2c1 > 100 µM (inactive)

Give GI50; test system M14; compound O=C1Oc2ccccc2N/C1=C/C(=O)c1ccc([N+](=O)[O-])cc1 > 100 µM (inactive)

Give GI50; test system M14; compound Cc1nc(N)nn1C1OCC(O)C(O)C1O (stereo not given) > 100 µM (inactive)
